# pEC50 listing for each entry below
# TESTED ON: human ferroportin (Homo sapiens, UniProt Q9NP59)
# Construct: luciferase reporter (read with the Nano-Glo Luciferase Assay System); expressed in transfected cells; host or cells: CHO cells, stably transfected, expression induced with doxycycline
# Sequence (Q9NP59 1-571): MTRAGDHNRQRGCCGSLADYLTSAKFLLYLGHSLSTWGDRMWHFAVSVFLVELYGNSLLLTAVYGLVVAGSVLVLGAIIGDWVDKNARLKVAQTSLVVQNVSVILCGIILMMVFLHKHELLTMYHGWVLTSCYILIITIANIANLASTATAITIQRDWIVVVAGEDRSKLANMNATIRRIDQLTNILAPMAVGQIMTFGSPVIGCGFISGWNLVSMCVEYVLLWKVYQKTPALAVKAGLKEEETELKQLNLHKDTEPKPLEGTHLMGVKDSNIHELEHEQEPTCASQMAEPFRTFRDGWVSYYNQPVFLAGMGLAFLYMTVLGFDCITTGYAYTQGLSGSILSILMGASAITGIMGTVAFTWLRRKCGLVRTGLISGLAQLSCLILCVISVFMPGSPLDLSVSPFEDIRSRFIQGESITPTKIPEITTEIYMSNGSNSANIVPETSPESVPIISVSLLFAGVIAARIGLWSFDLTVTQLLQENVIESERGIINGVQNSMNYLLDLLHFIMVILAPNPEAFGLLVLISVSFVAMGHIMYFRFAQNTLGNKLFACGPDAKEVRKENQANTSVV
# ASSAY INFO: Biological in-vitro ferroportin internalization assay (luciferase reporter)
# Format: cell-based
# RUN PARAMETERS: average pEC50; stably-transfected CHO cell line expressing human ferroportin tagged to a luciferase reporter; 6 h incubation with test compound
RECORDED ENDPOINT: pEC50

COMPOUND | REPORTED MEASUREMENT
COc1ccc2cc(-c3nc4c(c(N(C)CC(=O)NC(C)(C)C)n3)CCC4)ncc2c1 | 7.1
COc1ncc(NC(=O)CN(C)c2nc(-c3cc(OCCO)ccn3)nc3c2CCC3)cn1 | 7.4
COc1ccnc(-c2nc3c(c(N(C)CC(=O)N[C@H]4CCCC[C@H]4O)n2)CCC3)c1 | 7.3
CC(C)[C@@H](O)COc1ccnc(-c2nc3c(c(N(C)CC(=O)NC(C)(C)C)n2)CCC3)c1 | 8.2
CCNC(=O)CN(C)c1nc(-c2cc(OCC3(O)CCOCC3)ccn2)nc2c1CCC2 | 7.6
Cc1ccnc(-c2nc3c(c(N4CCCCCC4)n2)CCC3)c1 | 6.8
COc1ccc(NC(=O)[C@@H](C)N(C)c2nc(-c3cc4ccccc4cn3)nc3c2CCC3)cn1 | 7.4
COc1ccc(NC(=O)CN(C)c2nc(-c3cc(OCC(C)(C)O)ccn3)nc3c2CCC3)cn1 | 7.9
O=C1CCCCCN1c1nc(-c2ccccn2)nc2c1CCC2 | 5.1
CC(C(=O)NC1CCCCC1)N(C)c1nc(-c2ccccn2)nc2c1CCC2 (centres unmarked) | 7.3
C[C@@H](CO)Oc1ccnc(-c2nc3c(c(N(C)CC(=O)NC(C)(C)C)n2)CCC3)c1 | 8.2
c1ccc(-c2nc3c(c(N4CCc5ccccc5CC4)n2)CCC3)nc1 | 6.9
CN(CC(=O)NC(C)(C)C)c1nc(-c2cc3ccoc3cn2)nc2c1CCC2 | 7.4
C[C@H](C(=O)NC(C)(C)C)N(C)c1nc(-c2cc3cn[nH]c3cn2)nc2c1CCC2 | 8
